# METHOD: in vivo
# RUN_CONDITIONS: CD1 nude, mouse, 0.5 nmol/mouse, total radioactivity, Liver uptake
Below is a list of entries, each paired with its recorded tissue uptake at 4 h value.
Just the number in %ID/g, nothing appended.

Cc1ccc(CCCC(=O)NCCCCCCCC(=O)NCCCC[C@H](NC(=O)CN2CCN(CC(=O)O)CCN(CC(=O)O)CCN(CC(=O)O)CC2)C(=O)N[C@@H](CC(=O)O)C(=O)N[C@@H](CC2CCCCC2)C(=O)N[C@@H](Cc2ccccc2)C(=O)N[C@H](CO)C(=O)N[C@H](CCCNC(=N)N)C(=O)N[C@@H](Cc2ccc(O)cc2)C(=O)N[C@@H](CC(C)C)C(=O)N[C@@H](Cc2c[nH]c3ccccc23)C(=O)N[C@@H](CO)C(N)=O)cc1 [[^177Lu]Lu-uPAR-12, metal not drawn] : 5.3

Proceeding to the next compound to report its tissue uptake at 4 h.
Asked: // query tissue uptake at 4 h value for entry Cc1ccc(CCCC(=O)NCCOCCOCCOCCOCCC(=O)NCCCC[C@H](NC(=O)CN2CCN(CC(=O)O)CCN(CC(=O)O)CCN(CC(=O)O)CC2)C(=O)N[C@@H](CC(=O)O)C(=O)N[C@@H](CC2CCCCC2)C(=O)N[C@@H](Cc2ccccc2)C(=O)N[C@H](CO)C(=O)N[C@H](CCCNC(=N)N)C(=O)N[C@@H](Cc2ccc(O)cc2)C(=O)N[C@@H](CC(C)C)C(=O)N[C@@H](Cc2c[nH]c3ccccc23)C(=O)N[C@@H](CO)C(N)=O)cc1 [[^177Lu]Lu-uPAR-11, metal not drawn]
Given back: 1.8

====

# METHOD: Biodistribution in HEK-uPAR xenografted nude mice
# RUN_CONDITIONS: CD1 nude, mouse, brain, 0.5 nmol/mouse, total radioactivity, Brain uptake, 1 h p.i.; decay-corrected
READOUT: tissue uptake at 1 h

Asked: // query tissue uptake at 1 h value for entry CC(C)C[C@H](NC(=O)[C@H](Cc1ccc(O)cc1)NC(=O)[C@@H](CCCNC(=N)N)NC(=O)[C@@H](CO)NC(=O)[C@H](Cc1ccccc1)NC(=O)[C@H](CC1CCCCC1)NC(=O)[C@H](CC(=O)O)NC(=O)CN1CCN(CC(=O)O)CCN(CC(=O)O)CCN(CC(=O)O)CC1)C(=O)N[C@@H](Cc1c[nH]c2ccccc12)C(=O)N[C@@H](CO)C(N)=O [[^177Lu]Lu-DOTA-AE105, metal not drawn]
Given back: < 0.03 %ID/g

====

# METHOD: Biodistribution in HEK-uPAR xenografted nude mice
# RUN_CONDITIONS: CD1 nude, mouse, intestines, 0.5 nmol/mouse, total radioactivity, Intestines uptake, 1 h p.i.; decay-corrected
READOUT: tissue uptake at 1 h
Remember to quote the unit after the number.

Asked: // query tissue uptake at 1 h value for entry CC(C)C[C@H](NC(=O)[C@H](Cc1ccc(O)cc1)NC(=O)[C@@H](CCCNC(=N)N)NC(=O)[C@@H](CO)NC(=O)[C@H](Cc1ccccc1)NC(=O)[C@H](CC1CCCCC1)NC(=O)[C@H](CC(=O)O)NC(=O)CN1CCN(CC(=O)O)CCN(CC(=O)O)CCN(CC(=O)O)CC1)C(=O)N[C@@H](Cc1c[nH]c2ccccc12)C(=O)N[C@@H](CO)C(N)=O [[^177Lu]Lu-DOTA-AE105, metal not drawn]
Given back: 0.52 %ID/g

====

# METHOD: in vivo
# RUN_CONDITIONS: CD1 nude, mouse, 0.5 nmol/mouse, total radioactivity, Stomach uptake
Below is a list of entries, each paired with its recorded tissue uptake at 24 h value.
Just the number in %ID/g, nothing appended.

Cc1ccc(CCCC(=O)NCCCCCCCC(=O)NCCCC[C@H](NC(=O)CN2CCN(CC(=O)O)CCN(CC(=O)O)CCN(CC(=O)O)CC2)C(=O)N[C@@H](CC(=O)O)C(=O)N[C@@H](CC2CCCCC2)C(=O)N[C@@H](Cc2ccccc2)C(=O)N[C@H](CO)C(=O)N[C@H](CCCNC(=N)N)C(=O)N[C@@H](Cc2ccc(O)cc2)C(=O)N[C@@H](CC(C)C)C(=O)N[C@@H](Cc2c[nH]c3ccccc23)C(=O)N[C@@H](CO)C(N)=O)cc1 [[^177Lu]Lu-uPAR-12, metal not drawn] : 0.52

Proceeding to the next compound to report its tissue uptake at 24 h.
Asked: // query tissue uptake at 24 h value for entry Cc1ccc(CCCC(=O)NCCOCCOCCOCCOCCC(=O)NCCCC[C@H](NC(=O)CC[C@H](C(=O)O)N2CCN(CC(=O)O)CCN(CC(=O)O)CCN(CC(=O)O)CC2)C(=O)N[C@@H](CC(=O)O)C(=O)N[C@@H](CC2CCCCC2)C(=O)N[C@@H](Cc2ccccc2)C(=O)N[C@H](CO)C(=O)N[C@H](CCCNC(=N)N)C(=O)N[C@@H](Cc2ccc(O)cc2)C(=O)N[C@@H](CC(C)C)C(=O)N[C@@H](Cc2c[nH]c3ccccc23)C(=O)N[C@@H](CO)C(N)=O)cc1 [[^177Lu]Lu-uPAR-17, metal not drawn]
Given back: 0.05

====

# SUBJECT_OF_TEST: mouse serum albumin (Mus musculus)
# Construct: tissue Rockland Immunochemicals Inc., USA Lot: 32321; host or cells: mouse blood plasma
# Sequence (P07724 25-608): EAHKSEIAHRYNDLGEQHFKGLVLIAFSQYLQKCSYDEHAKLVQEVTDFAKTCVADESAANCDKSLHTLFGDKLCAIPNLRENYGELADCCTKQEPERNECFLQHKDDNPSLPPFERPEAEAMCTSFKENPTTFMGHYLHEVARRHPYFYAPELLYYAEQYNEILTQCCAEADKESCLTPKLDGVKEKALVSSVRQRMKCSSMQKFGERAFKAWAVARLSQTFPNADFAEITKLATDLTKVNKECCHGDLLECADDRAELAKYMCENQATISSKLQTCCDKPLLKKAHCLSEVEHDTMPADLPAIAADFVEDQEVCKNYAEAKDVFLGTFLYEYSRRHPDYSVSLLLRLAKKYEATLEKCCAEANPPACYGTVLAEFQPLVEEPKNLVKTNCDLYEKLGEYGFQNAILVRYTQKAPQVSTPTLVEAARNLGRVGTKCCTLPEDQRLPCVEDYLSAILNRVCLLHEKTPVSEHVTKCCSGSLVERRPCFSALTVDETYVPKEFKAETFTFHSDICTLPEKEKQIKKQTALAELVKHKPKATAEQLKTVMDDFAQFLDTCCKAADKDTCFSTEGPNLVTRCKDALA
# Assay type: in vitro ADME
READOUT: Albumin-binding properties, relative values (inverse B50 ratio)

Asked: Param readout= Albumin-binding properties, relative values (inverse B50 ratio); system= mouse serum albumin (Mus musculus); entry= Cc1ccc(CCCC(=O)NCCOCCOCCOCCOCCOCCC(=O)NCCCC[C@H](NC(=O)CN2CCN(CC(=O)O)CCN(CC(=O)O)CCN(CC(=O)O)CC2)C(=O)N[C@@H](CC(=O)O)C(=O)N[C@@H](CC2CCCCC2)C(=O)N[C@@H](Cc2ccccc2)C(=O)N[C@H](CO)C(=O)N[C@H](CCCNC(=N)N)C(=O)N[C@@H](Cc2ccc(O)cc2)C(=O)N[C@@H](CC(C)C)C(=O)N[C@@H](Cc2c[nH]c3ccccc23)C(=O)N[C@@H](CO)C(N)=O)cc1 [[^177Lu]Lu-uPAR-18, metal not drawn] ; returns value.
Given back: 0.66

====

# METHOD: in vivo
# RUN_CONDITIONS: CD1 nude, mouse, 0.5 nmol/mouse, total radioactivity, Salivary glands uptake
READOUT: tissue uptake at 24 h

Asked: // query tissue uptake at 24 h value for entry Cc1ccc(CCCC(=O)NCCOCCOCCOCCOCCC(=O)NCCCC[C@H](NC(=O)CC[C@H](C(=O)O)N2CCN(CC(=O)O)CCN(CC(=O)O)CCN(CC(=O)O)CC2)C(=O)N[C@@H](CC(=O)O)C(=O)N[C@@H](CC2CCCCC2)C(=O)N[C@@H](Cc2ccccc2)C(=O)N[C@H](CO)C(=O)N[C@H](CCCNC(=N)N)C(=O)N[C@@H](Cc2ccc(O)cc2)C(=O)N[C@@H](CC(C)C)C(=O)N[C@@H](Cc2c[nH]c3ccccc23)C(=O)N[C@@H](CO)C(N)=O)cc1 [[^177Lu]Lu-uPAR-17, metal not drawn]
Given back: 0.12 %ID/g

====

# METHOD: in vivo
# RUN_CONDITIONS: CD1 nude, mouse, 0.5 nmol/mouse, total radioactivity, HEK-uPAR xenograft uptake
READOUT: tissue uptake at 24 h
Remember to quote the unit after the number.

Cc1ccc(CCCC(=O)NCCOCCOCCOCCC(=O)NCCCC[C@H](NC(=O)CN2CCN(CC(=O)O)CCN(CC(=O)O)CCN(CC(=O)O)CC2)C(=O)N[C@@H](CC(=O)O)C(=O)N[C@@H](CC2CCCCC2)C(=O)N[C@@H](Cc2ccccc2)C(=O)N[C@H](CO)C(=O)N[C@H](CCCNC(=N)N)C(=O)N[C@@H](Cc2ccc(O)cc2)C(=O)N[C@@H](CC(C)C)C(=O)N[C@@H](Cc2c[nH]c3ccccc23)C(=O)N[C@@H](CO)C(N)=O)cc1 [[^177Lu]Lu-uPAR-15, metal not drawn] : 3.1 %ID/g

Proceeding to the next molecule to report its tissue uptake at 24 h.
Asked: // query tissue uptake at 24 h value for entry Cc1ccc(CCCC(=O)NCCOCCOCCOCCOCCC(=O)NCCCC[C@H](NC(=O)CC[C@H](C(=O)O)N2CCN(CC(=O)O)CCN(CC(=O)O)CCN(CC(=O)O)CC2)C(=O)N[C@@H](CC(=O)O)C(=O)N[C@@H](CC2CCCCC2)C(=O)N[C@@H](Cc2ccccc2)C(=O)N[C@H](CO)C(=O)N[C@H](CCCNC(=N)N)C(=O)N[C@@H](Cc2ccc(O)cc2)C(=O)N[C@@H](CC(C)C)C(=O)N[C@@H](Cc2c[nH]c3ccccc23)C(=O)N[C@@H](CO)C(N)=O)cc1 [[^177Lu]Lu-uPAR-17, metal not drawn]
Given back: 2.1 %ID/g

====

# METHOD: physchem
# Type: physicochemical
# RUN_CONDITIONS: pH 7.4
READOUT: logD
// response body must contain only the number

Asked: // query logD value for entry Cc1ccc(CCCC(=O)NCCCCCCCC(=O)NCCCC[C@H](NC(=O)CN2CCN(CC(=O)O)CCN(CC(=O)O)CCN(CC(=O)O)CC2)C(=O)N[C@@H](CC(=O)O)C(=O)N[C@@H](CC2CCCCC2)C(=O)N[C@@H](Cc2ccccc2)C(=O)N[C@H](CO)C(=O)N[C@H](CCCNC(=N)N)C(=O)N[C@@H](Cc2ccc(O)cc2)C(=O)N[C@@H](CC(C)C)C(=O)N[C@@H](Cc2c[nH]c3ccccc23)C(=O)N[C@@H](CO)C(N)=O)cc1 [[^177Lu]Lu-uPAR-12, metal not drawn]
Given back: 0.96
